Molecular target: T1, cynomolgus 4-1BB extracellular domain, His tag (cynomolgus, UniProt A9YYE7 24-186)
T1 construct: extracellular domain; also called cynoPro1.ECD.His; ACRO-41B-C52H4; not shown: His tag
T1 sequence (A9YYE7 entry or part of it): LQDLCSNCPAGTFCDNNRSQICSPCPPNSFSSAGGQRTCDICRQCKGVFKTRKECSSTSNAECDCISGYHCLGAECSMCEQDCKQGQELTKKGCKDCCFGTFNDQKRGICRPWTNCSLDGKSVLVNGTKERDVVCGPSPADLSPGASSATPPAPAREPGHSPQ
Assay: SPR, Biacore T200; antibody captured on Protein G chip, cynomolgus 4-1BB ECD.His as analyte
This listing pairs binders with measured Kd.

BINDER	Kd / nM
2.19.8-u1-3-hIgG1L (antibody, V domains shown, Fully human antibody) VH: QVQLVESGGGLVKPGGSLRLSCAASGFTFSDYFMSWIRQAPGKGLEWVSYISNAGSSKYYADSVKGRFTISRDNAKNSLYLQMNSLRAEDTAVYYCVRDPYSGSYSGWFDPWGQGTLVTVSS VL: SYDLTQPPSVSVSPGQTASITCSGDDLGDKYTSWYQQKPGQSPVLVVYQDHKRPSGIPERFSGSNSGNTATLTISGTQAMDEADYYCQAWDKGIVVFGGGTKLTVL	0.0164
2.19.8-u1-3-hIgG4L (antibody, V domains shown) VH: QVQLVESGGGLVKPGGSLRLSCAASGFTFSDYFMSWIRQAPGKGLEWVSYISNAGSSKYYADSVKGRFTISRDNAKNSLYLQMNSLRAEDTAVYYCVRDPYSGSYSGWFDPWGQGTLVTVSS VL: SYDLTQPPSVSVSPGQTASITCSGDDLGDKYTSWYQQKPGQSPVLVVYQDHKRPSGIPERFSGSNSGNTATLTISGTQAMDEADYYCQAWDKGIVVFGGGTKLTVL	0.0158
2.27.16-u1-1-hIgG4L (antibody, V domains shown) VH: QEQLQESGPGLVKPSQTLSLTCTVSGGSINSQGYYWSWIRQHPGKGLEWIGYIYDSGSAYYNPSLERRVAISLDTSKNQFSLNLNSVTVADTAVYYCARIVAAGRIDPWGQGTLVTVSS VL: SYVLTQPPSVSVAPGQTARMTCGGDNIGIKIVHWYQQKAGQAPVLVVYDDNDRPSGIPDRFSGSNSGNTATLTISRVAAGDEADYYCQVWDRRSDHVVFGGGTKLTVL	0.439
2.27.16-u1-1-hIgG1L (antibody, V domains shown, Fully human antibody) VH: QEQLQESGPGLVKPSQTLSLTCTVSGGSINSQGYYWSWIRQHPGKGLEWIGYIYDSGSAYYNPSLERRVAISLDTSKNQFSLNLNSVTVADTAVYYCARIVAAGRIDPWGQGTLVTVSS VL: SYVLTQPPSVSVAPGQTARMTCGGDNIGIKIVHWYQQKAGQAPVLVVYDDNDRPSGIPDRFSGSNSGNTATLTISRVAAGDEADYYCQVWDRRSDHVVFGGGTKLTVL	0.142

FYI, the data here is from patent US20210230287A1.
